experiment: Plasma pharmacokinetics after repeated once daily oral dosing of 2.5% (m/v) oily suspension; format: in vivo, cat; conditions: both sexes, plasma, po, 4.8 mg/kg, first dose, 4.8 mg molidustat sodium per kg once daily oral, geometric mean (CV)
VALUE_TYPE: Cmax
Your reply should be a number followed by the unit it is expressed in.

Request: Return value of Cmax for input `O=c1c(-n2ccnn2)c[nH]n1-c1cc(N2CCOCC2)ncn1` , no commentary.
Response: 4460 ng/mL

====

experiment: Plasma pharmacokinetics after single intravenous bolus dose; format: in vivo, cat; conditions: both sexes, plasma, 5 mg/kg; single intravenous bolus 5 mg molidustat sodium per kg; read-out: elimination half-life (converted)
VALUE_TYPE: half-life (h)
Field format: number, assumed h, no unit text.

Request: Return value of half-life for input `O=c1c(-n2ccnn2)c[nH]n1-c1cc(N2CCOCC2)ncn1` , no commentary.
Response: 5.91
